Exercise: for every item that follows, state its recorded logP.
Answers are plain numbers.

>>> df
                    chemical_string  recorded_measurement
0  Nc1ccc(S(=O)(=O)c2ccc(O)cc2O)cc1                  1.29

List reported logP for each of these molecules:
1. Nc1ccc(S(=O)(=O)c2ccc(NO)cc2)cc1
2. Nc1ccc(S(=O)(=O)c2ccc([N+](=O)[O-])cc2[N+](=O)[O-])cc1
3. Nc1ccc(S(=O)(=O)c2ccc(Cl)cc2Cl)cc1
4. Cc1cc(C)c(S(=O)(=O)c2ccc(N)cc2)c(C)c1
5. COC(=O)c1ccc(S(=O)(=O)c2ccc(N)cc2)cc1

Ans.
1: 0.88; 2: 1.84; 3: 3.12; 4: 3.06; 5: 2.13

List reported logP for each of these molecules:
1. CC(=O)c1ccc(S(=O)(=O)c2ccc(N)cc2)cc1
2. COc1cc(OC)c(S(=O)(=O)c2ccc(N)cc2)c(OC)c1
3. Nc1ccc(S(=O)(=O)c2ccc(N)cc2N)cc1
4. CCN(CC)c1ccc(S(=O)(=O)c2ccc(N)cc2)cc1
5. Cc1ccc(S(=O)(=O)c2ccc(N)cc2)c(C)c1
6. Cc1ccc(S(=O)(=O)c2ccc(N)cc2)cc1
7. Nc1ccc(S(=O)(=O)c2cccc(N)c2)cc1

Ans.
1. 1.67
2. 1.03
3. 0.38
4. 3
5. 2.71
6. 2.4
7. 1.03

List reported logP for each of these molecules:
1. CCN(CC)C(=O)c1ccc(S(=O)(=O)c2ccc(N)cc2)cc1
2. CN(C)c1ccc(S(=O)(=O)c2ccc(N)cc2)cc1

Ans.
1: 1.44; 2: 1.99
